Would you kindly list GI50 for each of these molecules?
Test system: NCI-H23
assay.notes: NCI tumour cell line growth inhibition, 48 h
Activity calls are given as the source filed them. No stated cut-off is given here; in the data, active = GI50 up to about 1.1 µM and inactive = higher.

Entry O=c1c2ccccc2c2ccccc2c(=O)n1Cc1ccc2c(c1)OCO2 , GI50 reported as 24.7 µM (inactive)

The measured GI50 associated with Nn1c(CCCCCCCCc2nnc(-c3c(O)ccc4ccccc34)n2N)nnc1-c1c(O)ccc2ccccc12 reads > 100 µM (inactive)

The recorded GI50 for entry OC1(c2ccc(Cl)cc2)c2ccc3ccccc3c2C2=N[C@H]3CCCC[C@@H]3N21 (stereo partly drawn) equals 37 µM (inactive)

In plain terms, CC(C)(O)[C@@H]1CC[C@@]2(C)CCCC(O)C2(O)C1 (stereo partly drawn) has a documented GI50 of > 100 µM (inactive)

What the record says about C=C1C(=O)O[C@@H]2/C=C(\C)CC/C=C(/COC(C)=O)C[C@@H](OC(C)=O)[C@@H]12 : GI50 is 13.6 µM (inactive)

Documented GI50 of N=C(N)NS(=O)(=O)c1ccc(NNc2c3ccccc3nc3ccccc23)cc1 : 9.29 µM (inactive)

Entry COC(=O)N[C@@H]1C[C@H]2CC[C@]1(O[Si](C(C)C)(C(C)C)C(C)C)C(=O)C2 , GI50 reported as 17.1 µM (inactive)

In plain terms, CCCCCCCCCCC(=O)CCCCCCC(=O)O has a documented GI50 of 30.1 µM (inactive)
